target: monkey NPR1 (Macaca fascicularis); assay: Cellular cGMP production assay, monkey NPR1 expressing CHO-K1 cells (CisBio HTRF); format: cell-based; settings: maximum cGMP production as percentage of the maximum cGMP produced with ANP, monkey NPR1 CHO-K1 cells
property: Monkey NPR1 Amax (% of ANP)

Here is how some molecules turned out for Monkey NPR1 Amax (% of ANP).
smi: CC[C@@H](Nc1nc2c(c(N[C@@H](CN3C[C@H]4CC[C@@H]3C4)c3cnn(CC)c3)n1)C[C@H](c1ccccc1)CC2)[C@H]1CC[C@H](C(=O)O)CC1
Monkey NPR1 Amax (% of ANP): 99.605 % of ANP
//
smi: CC[C@H]([C@H]1CC[C@H](C(=O)O)CC1)N(C)c1nc2c(c(N[C@@H](CN3C4CCCC3CC4)c3cn(C)nc3C)n1)C[C@H](c1cccc(F)c1)CC2
Monkey NPR1 Amax (% of ANP): 107.819 % of ANP

Note: attention shifts to another entry.
Value lookup for Monkey NPR1 Amax (% of ANP); key = CC[C@H]([C@H]1CC[C@H](C(=O)O)CC1)N(C)c1nc2c(c(N[C@@H](CN3CCC[C@H](COC)C3)c3cnn(C)c3)n1)C[C@H](c1ccccc1)CC2
98.205 % of ANP

----------
Target: monkey NPR1 (Macaca fascicularis, UniProt A0A7N9DBT9)
Sequence (A0A7N9DBT9 entry or part of it): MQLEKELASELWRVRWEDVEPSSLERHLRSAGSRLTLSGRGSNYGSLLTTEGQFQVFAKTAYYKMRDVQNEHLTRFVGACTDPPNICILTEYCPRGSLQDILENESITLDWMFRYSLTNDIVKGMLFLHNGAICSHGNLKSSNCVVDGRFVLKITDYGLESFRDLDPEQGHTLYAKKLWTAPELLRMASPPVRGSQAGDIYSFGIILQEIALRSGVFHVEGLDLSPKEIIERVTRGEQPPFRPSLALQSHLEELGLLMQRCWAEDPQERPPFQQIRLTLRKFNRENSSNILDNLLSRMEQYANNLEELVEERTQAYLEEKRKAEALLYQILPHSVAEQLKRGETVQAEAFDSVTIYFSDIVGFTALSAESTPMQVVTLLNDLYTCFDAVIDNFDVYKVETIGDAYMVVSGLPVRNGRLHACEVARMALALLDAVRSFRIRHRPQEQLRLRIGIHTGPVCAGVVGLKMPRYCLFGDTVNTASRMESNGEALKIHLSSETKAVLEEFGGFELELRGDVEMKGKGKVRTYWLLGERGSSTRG
Assay: Cellular cGMP production assay, monkey NPR1 expressing CHO-K1 cells (CisBio HTRF)
Type: cell-based
Protocol: Cellular cGMP is a major second messenger that mediates cell activities and is synthesized by activated NPR1 triggered by binding of the natural ligand ANP. […] The assay was performed according to manufacturer's instructions with minor deviations. […] The readout was performed using an Envision plate reader (PerkinElmer) with an excitation wavelength of 317 nm and an emission wavelength of 665 nm. cGMP concentration (Delta F [° %]) was calculated according to the following formulae: […]
Measured AC50 accompanies every entry in the list below.

Here is how some compounds turned out for AC50.
compound: CC[C@@H](N(C)c1nc2c(c(N[C@@H](CN3C4CCCC3CCC4)c3cnn(C)c3C)n1)C[C@H](c1cccc(F)c1)CC2)C12CC(C(=O)O)(C1)C2 [Compound 89]
property: AC50
result: 268 nM
//
compound: CC[C@@H](Nc1nc2c(c(N[C@@H](CN3C4CCCC3CC4)c3sc(C)nc3C)n1)C[C@H](c1cccc(F)c1)CC2)[C@H]1CC[C@H](C(=O)O)CC1 [Compound 24]
property: AC50
result: 102 nM
//
compound: CC[C@H]([C@H]1CC[C@H](C(=O)O)CC1)N(C)c1nc2c(c(N[C@@H](CN3C4CCCC3CC4)c3cnn(C)c3)n1)C[C@H](c1ccc(F)cc1)CC2 [Compound 31]
property: AC50
result: 89 nM
//
compound: CC[C@H]([C@H]1CC[C@H](C(=O)O)CC1)N(C)c1nc2c(c(N[C@@H](CN3C4CCCC3CCC4)c3cnn(CC)c3)n1)C[C@H](c1cccc(F)c1)CC2 [Compound 18]
property: AC50
result: 71 nM

Note: attention shifts to another entry.
Value lookup for AC50; key = CCn1cc([C@H](CN2C3CCCC2CCC3)Nc2nc(N[C@H](C)c3ccc(C(=O)O)cc3)nc3c2C[C@H](c2cccc(F)c2)CC3)cn1 [Compound 153]
753 nM

----------
Measured AC50 accompanies every entry in the list below.
target: human NPR1 (Homo sapiens, UniProt P16066); construct: host or cells: CHO-K1; assay: Cellular cGMP production assay, human NPR1 expressing CHO-K1 cells (CisBio HTRF); assay type: cell-based; conditions: cGMP production, 30 min at 37° C., 12-point dose-response from 30 μM
Sequence (P16066 33-1061): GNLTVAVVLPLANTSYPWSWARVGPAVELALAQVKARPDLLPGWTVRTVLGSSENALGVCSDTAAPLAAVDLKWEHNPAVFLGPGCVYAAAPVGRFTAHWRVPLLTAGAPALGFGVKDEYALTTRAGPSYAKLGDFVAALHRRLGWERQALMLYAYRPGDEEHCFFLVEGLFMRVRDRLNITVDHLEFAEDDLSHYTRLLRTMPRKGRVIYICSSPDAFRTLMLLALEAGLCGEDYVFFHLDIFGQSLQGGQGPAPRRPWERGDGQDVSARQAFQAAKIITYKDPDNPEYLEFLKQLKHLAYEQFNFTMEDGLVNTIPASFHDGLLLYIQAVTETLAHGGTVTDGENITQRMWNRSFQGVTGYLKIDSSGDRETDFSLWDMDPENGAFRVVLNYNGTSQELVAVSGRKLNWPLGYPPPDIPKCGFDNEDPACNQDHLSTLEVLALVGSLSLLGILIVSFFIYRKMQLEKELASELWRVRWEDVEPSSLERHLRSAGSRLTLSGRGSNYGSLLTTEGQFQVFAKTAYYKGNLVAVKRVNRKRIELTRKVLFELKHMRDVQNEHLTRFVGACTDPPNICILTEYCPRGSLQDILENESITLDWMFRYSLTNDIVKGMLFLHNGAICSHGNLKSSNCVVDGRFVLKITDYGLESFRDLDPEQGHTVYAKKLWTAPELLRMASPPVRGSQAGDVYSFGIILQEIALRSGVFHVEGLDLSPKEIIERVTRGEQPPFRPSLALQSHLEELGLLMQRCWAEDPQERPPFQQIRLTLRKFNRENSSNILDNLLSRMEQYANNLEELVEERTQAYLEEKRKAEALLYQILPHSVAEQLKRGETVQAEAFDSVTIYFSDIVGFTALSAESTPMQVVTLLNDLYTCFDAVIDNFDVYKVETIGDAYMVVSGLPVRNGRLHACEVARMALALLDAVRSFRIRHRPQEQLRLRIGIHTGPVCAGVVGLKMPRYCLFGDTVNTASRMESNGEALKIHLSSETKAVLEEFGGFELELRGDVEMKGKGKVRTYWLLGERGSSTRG
Write the value in nM as a bare number.

compound: CC[C@@H](Nc1nc2c(c(N[C@@H](CN3C4CCCC3CC4)c3sc(C)nc3C)n1)C[C@H](c1cccc(F)c1)CC2)[C@H]1CC[C@H](C(=O)O)CC1
property: AC50
measured.number: 125

Value lookup for AC50; key = CC[C@@H](N(C)c1nc2c(c(N[C@@H](CN3C4CCCC3CCC4)c3ccnn3C)n1)C[C@H](c1ccccc1)CC2)C12CC(C(=O)O)(C1)C2
3680

Value lookup for AC50; key = CC[C@@H](Nc1nc2c(c(N[C@@H](CN3CCC[C@H](C)C3)c3cnn(C)c3)n1)C[C@H](c1ccccc1)CC2)[C@H]1CC[C@H](C(=O)O)CC1
144

Value lookup for AC50; key = CC[C@H]([C@H]1CC[C@H](C(=O)O)CC1)N(C)c1nc2c(c(NC(CN3CCC[C@H](C)C3)c3cnn(CF)c3)n1)C[C@H](c1ccccc1)CC2 (some centres unmarked)
404

Value lookup for AC50; key = CC[C@H]([C@H]1CC[C@H](C(=O)O)CC1)N(C)c1nc2c(c(N[C@@H](CN3CCC[C@H](CO)C3)c3cnn(C)c3)n1)C[C@H](c1ccccc1)CC2
318

----------
biological target: monkey NPR1 (Macaca fascicularis); assay: Cellular cGMP production assay, monkey NPR1 expressing CHO-K1 cells (CisBio HTRF); format: cell-based; settings: maximum cGMP production as percentage of the maximum cGMP produced with ANP, monkey NPR1 CHO-K1 cells
property: Monkey NPR1 Amax (% of ANP)

Value lookup for Monkey NPR1 Amax (% of ANP); key = CC[C@H]([C@H]1CC[C@H](C(=O)O)CC1)N(C)c1nc2c(c(N[C@@H](CN3CCC[C@H](C)C3)c3ccnn3C)n1)C[C@H](c1cccc(F)c1)CC2
97.242 % of ANP

----------
molecular target: human NPR1 (Homo sapiens, UniProt P16066); construct: host or cells: CHO-K1; experiment: Cellular cGMP production assay, human NPR1 expressing CHO-K1 cells (CisBio HTRF); type: cell-based; conditions: cGMP production, 30 min at 37° C., 12-point dose-response from 30 μM
property: AC50 (nM)
Write the value in nM as a bare number.

Here is how some compounds turned out for AC50.
compound: CC[C@H]([C@H]1CC[C@H](C(=O)O)CC1)N(C)c1nc2c(c(N[C@@H](CN3CCC[C@H](O)C3)c3cnn(C)c3)n1)C[C@H](c1ccccc1)CC2
measured.number: 646

compound: CC[C@@H](Nc1nc2c(c(N[C@@H](CN3CCCCC3)c3cnn(CC)c3)n1)C[C@H](c1ccccc1)CC2)[C@H]1CC[C@H](C(=O)O)CC1
measured.number: 175

compound: CC[C@@H](Nc1nc2c(c(N[C@@H](CN3CC4CCC3C4)c3ccc(F)cc3)n1)C[C@H](c1ccccc1)CC2)[C@H]1CC[C@H](C(=O)O)CC1 (stereo partly drawn)
measured.number: 286

compound: CC[C@H]([C@H]1CC[C@H](C(=O)O)CC1)N(C)c1nc2c(c(N[C@@H](CN3C4CCC3CC4)c3cnn(C)c3)n1)C[C@H](c1cccc(F)c1)CC2
measured.number: 199

compound: CC[C@H]([C@H]1CC[C@H](C(=O)O)CC1)N(C)c1nc2c(c(N[C@@H](CN3C4CCCC3CC4)c3cnn(C)c3)n1)C[C@H](c1ccccc1)CC2
measured.number: 393

compound: CC[C@@H]([C@H]1CC[C@@](F)(C(=O)O)CC1)N(C)c1nc2c(c(N[C@H](CN3CCC[C@@H](C)C3)c3cnn(C)c3)n1)C[C@@H](c1ccccc1)CC2
measured.number: 111

compound: CC[C@@H](Nc1nc2c(c(N[C@@H](CN3C4CCCC3CC4)c3cnn(C)c3)n1)C[C@H](c1ccccc1)CC2)[C@H]1CC[C@H](C(=O)O)CC1
measured.number: 205

compound: CC[C@H]([C@H]1CC[C@H](C(=O)O)CC1)N(C)c1nc2c(c(N[C@@H](CN3CCC[C@H](C)C3)c3cn(C)nc3F)n1)C[C@H](c1ccccc1)CC2 (stereo in doubt)
measured.number: 201

# query: AC50 | item CC[C@@H](N(C)c1nc2c(c(N[C@@H](CN3CCC[C@H](C)C3)c3cnn(CC)c3)n1)C[C@H](c1cccc(F)c1)CC2)C12CC(C(=O)O)(C1)C2 | system: human NPR1 (Homo sapiens, UniProt P16066)
94

# query: AC50 | item CC[C@@H](N(C)c1nc2c(c(N[C@@H](CN3C4CCCC3CC4)c3sc(C)nc3C)n1)C[C@H](c1cccc(F)c1)CC2)C12CC(C(=O)O)(C1)C2 | system: human NPR1 (Homo sapiens, UniProt P16066)
424

# query: AC50 | item CC[C@H]([C@H]1CC[C@](F)(C(=O)O)CC1)N(C)c1nc2c(c(N[C@H](CN3CCC[C@H](C)C3)c3cnn(C)c3)n1)C[C@H](c1ccccc1)CC2 | system: human NPR1 (Homo sapiens, UniProt P16066)
272

# query: AC50 | item CC[C@@H](N(C)c1nc2c(c(N[C@@H](CN3CCC[C@H](C)C3)c3cnn(C)c3)n1)C[C@H](c1ccccc1)CC2)C12CC(C(=O)O)(C1)C2 | system: human NPR1 (Homo sapiens, UniProt P16066)
173

# query: AC50 | item CC[C@H]([C@H]1CC[C@H](C(=O)O)CC1)N(C)c1nc2c(c(N[C@@H](CN3CCC[C@H](C(F)F)C3)c3cnn(C)c3)n1)C[C@H](c1cccc(F)c1)CC2 | system: human NPR1 (Homo sapiens, UniProt P16066)
194

# query: AC50 | item CC[C@@H](Nc1nc2c(c(N[C@@H](CN3C4CCCC3CCC4)c3ccccc3)n1)C[C@H](c1ccccc1)CC2)[C@H]1CC[C@H](C(=O)O)CC1 | system: human NPR1 (Homo sapiens, UniProt P16066)
410

# query: AC50 | item CC[C@H]([C@H]1CC[C@H](C(=O)O)CC1)N(C)c1nc2c(c(N[C@@H](CN3CCCC[C@H]3CO)c3cnn(CC)c3)n1)C[C@H](c1cccc(F)c1)CC2 | system: human NPR1 (Homo sapiens, UniProt P16066)
805

# query: AC50 | item CC[C@@H](Nc1nc2c(c(N[C@@H](CN3C[C@H]4CC[C@@H]3C4)c3cnn(CC)c3)n1)C[C@H](c1ccccc1)CC2)[C@H]1CC[C@H](C(=O)O)CC1 | system: human NPR1 (Homo sapiens, UniProt P16066)
574

# query: AC50 | item CC[C@H]([C@H]1CC[C@H](C(=O)O)CC1)N(C)c1nc2c(c(N[C@@H](CN3CCCC(C)(F)C3)c3cnn(C)c3)n1)C[C@H](c1ccccc1)CC2 (stereo partly drawn) | system: human NPR1 (Homo sapiens, UniProt P16066)
985

# query: AC50 | item CC[C@@H](Nc1nc2c(c(N[C@@H](CN3CCC[C@H](C)C3)c3cnn(C)c3)n1)C[C@](C)(c1ccccc1F)CC2)[C@H]1CC[C@H](C(=O)O)CC1 | system: human NPR1 (Homo sapiens, UniProt P16066)
109

# query: AC50 | item CC[C@@H](Nc1nc2c(c(N[C@@H](CN3CCCCC3)c3ccccc3)n1)C[C@@H](c1cccc(F)c1)CC2)[C@H]1CC[C@H](C(=O)O)CC1 | system: human NPR1 (Homo sapiens, UniProt P16066)
150

# query: AC50 | item CC[C@@H](Nc1nc2c(c(N[C@@H](CN3CCC[C@@H](C)C3)c3cnn(C)c3)n1)C[C@H](c1ccccc1)CC2)[C@H]1CC[C@H](C(=O)O)CC1 | system: human NPR1 (Homo sapiens, UniProt P16066)
284

# query: AC50 | item CC[C@H]([C@H]1CC[C@H](C(=O)O)CC1)N(C)c1nc2c(c(N[C@@H](CN3C4CCCC3CCC4)c3cnn(CC)c3)n1)C[C@H](c1cccc(F)c1)CC2 | system: human NPR1 (Homo sapiens, UniProt P16066)
107
